- Assayed Target: glucocorticoid receptor (GR) (Homo sapiens)
- Sequence (P04150 1-777): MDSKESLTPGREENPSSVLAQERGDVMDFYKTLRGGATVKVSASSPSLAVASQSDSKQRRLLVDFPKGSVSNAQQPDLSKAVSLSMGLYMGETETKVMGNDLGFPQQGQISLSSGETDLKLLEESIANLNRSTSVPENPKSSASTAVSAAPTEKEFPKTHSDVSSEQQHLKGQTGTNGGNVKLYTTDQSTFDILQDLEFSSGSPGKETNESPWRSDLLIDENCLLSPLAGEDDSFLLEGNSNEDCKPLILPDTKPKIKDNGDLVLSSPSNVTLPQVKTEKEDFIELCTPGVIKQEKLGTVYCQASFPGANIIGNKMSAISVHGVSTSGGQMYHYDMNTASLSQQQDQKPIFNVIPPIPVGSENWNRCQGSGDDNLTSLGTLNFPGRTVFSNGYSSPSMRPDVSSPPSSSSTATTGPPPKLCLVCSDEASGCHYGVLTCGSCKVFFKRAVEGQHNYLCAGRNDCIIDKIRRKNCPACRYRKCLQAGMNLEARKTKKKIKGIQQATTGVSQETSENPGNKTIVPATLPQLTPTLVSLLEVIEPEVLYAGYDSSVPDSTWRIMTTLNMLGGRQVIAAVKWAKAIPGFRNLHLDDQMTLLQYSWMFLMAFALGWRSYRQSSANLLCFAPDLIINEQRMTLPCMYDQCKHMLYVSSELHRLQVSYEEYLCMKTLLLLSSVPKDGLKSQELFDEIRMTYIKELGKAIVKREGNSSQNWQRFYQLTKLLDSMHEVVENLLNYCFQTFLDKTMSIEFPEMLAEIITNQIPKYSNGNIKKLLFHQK
- Procedure Summary: Binding to the glucocorticoid receptor, cytosol preparations of Sf9 cells, [3H]-dexamethasone as reference
- Cond: recombinant GR
Quantity Measured: IC50
In your response, the unit should come after the numeric value.

Reported IC50 for glucocorticoid receptor (GR) (Homo sapiens), given C/C=C1/C[C@@](O)(C(F)(F)F)[C@H](Nc2cccc3nc(C)ccc23)c2ccc(F)cc21 (relative stereo) ?
20 nM
